assay: Stability in human plasma under various storage conditions (QC samples); format: in vitro ADME; conditions: human plasma, nominal conc. 40 ng/mL; measured vs initial value, mean ± SD, n = 5; in % (unit assumed)
outcome.measure: Stability, Bench-Top (8 h at Room Temperature)
Please respond with just the number, no unit label.

Form: compound = CC(C)=CC(=O)O[C@H]1Cc2cc3ccc(=O)oc3cc2OC1(C)C [D, decursin] ; Stability, Bench-Top (8 h at Room Temperature) = 108.71

----------
test: Pharmacokinetic study after oral administration of AGN root extract powder in healthy Korean subjects; format: in vivo, human; conditions: male; human plasma, single usual oral dose of 4.6 g AGN root extract powder (0.055 mg D, 0.184 mg DA, 1.095 mg nodakenin); mean ± SE, n = 10
outcome.measure: Cmax (ng/mL)
Your answer should be a plain number; it is taken to be in ng/mL.

Worked cases, answers included:
[[record]]
compound = "CC(C)=CC(=O)O[C@H]1Cc2cc3ccc(=O)oc3cc2OC1(C)C"
recorded_result = 11.9

[[record]]
compound = "C/C=C(/C)C(=O)O[C@H]1Cc2cc3ccc(=O)oc3cc2OC1(C)C [DA, decursinol angelate]"
recorded_result = 7.72

[[record]]
compound = "CC1(C)Oc2cc3oc(=O)ccc3cc2C[C@@H]1O"
recorded_result = 0.92


Continue with the next compound.
// Cmax value for `CC(C)(O[C@@H]1O[C@H](CO)[C@@H](O)[C@H](O)[C@H]1O)[C@H]1Cc2cc3ccc(=O)oc3cc2O1` : 0.95

----------
assay: Pharmacokinetic study after oral administration of AGN root extract powder in healthy Korean subjects; format: in vivo, human; conditions: male, human, plasma; humans, single usual oral dose of 4.6 g AGN root extract powder; mean ± SE, n = 10
outcome.measure: Vd/F (L)
Value expressed in L; do not type the unit.

These solved cases illustrate the format of a correct answer.
[[record]]
compound = "CC(C)=CC(=O)O[C@H]1Cc2cc3ccc(=O)oc3cc2OC1(C)C"
quantity_unit = "L"
recorded_result = 11.9

[[record]]
compound = "C/C=C(/C)C(=O)O[C@H]1Cc2cc3ccc(=O)oc3cc2OC1(C)C [DA, decursinol angelate]"
quantity_unit = "L"
recorded_result = 60


Form field Vd/F, entry `CC(C)(O[C@@H]1O[C@H](CO)[C@@H](O)[C@H](O)[C@H]1O)[C@H]1Cc2cc3ccc(=O)oc3cc2O1` : 2800

----------
experiment: Stability in human plasma under various storage conditions (QC samples); type: in vitro ADME; conditions: human plasma; bench-top, processed sample, freeze-thaw, long-term; low and high QC; in % (unit assumed)
In this section we review reported Stability mean values (range over all storage conditions and concentrations) values for a set of compounds.

Illustrative cases are given below, each with its answer.
[[record]]
compound = "CC(C)=CC(=O)O[C@H]1Cc2cc3ccc(=O)oc3cc2OC1(C)C"
recorded_result = "96.54–108.94"

[[record]]
compound = "CC(C)(O[C@@H]1O[C@H](CO)[C@@H](O)[C@H](O)[C@H]1O)[C@H]1Cc2cc3ccc(=O)oc3cc2O1"
recorded_result = "101.43–111.62"

[[record]]
compound = "C/C=C(/C)C(=O)O[C@H]1Cc2cc3ccc(=O)oc3cc2OC1(C)C [DA, decursinol angelate]"
recorded_result = "99.35–111.85"


API: the following record is the query input.
Field Stability mean values (range over all storage conditions and concentrations) (entry `CC1(C)Oc2cc3oc(=O)ccc3cc2C[C@@H]1O` ) reads 87.35–106.93

Just for reference, paper PMC6100347 is where these values come from.
